The origin of these recorded values is PubChem BioAssay (NCI).

Attribute: GI50
system: SNB-75 CNS; test: NCI tumour cell line growth inhibition, 48 h

// below: answered compounds
CC(C)Oc1cc(OCC(=O)O)cc(C(=O)N(CCC(N)=O)C(=O)Nc2ccc(C(=O)O)cc2OC(C)C)c1    > 100000 nM
COc1cc(-c2cc(-c3ccc(N(C)C)cc3)nc(N3CCC(O)CC3)c2C#N)cc(OC)c1OC    457 nM

Next compound, GI50 to be filled in.
Request: Field request: GI50 | item: C=C1C(=O)O[C@@H]2[C@@H]3O[C@@](C)(CC/C=C(\C)CCC[C@@H]2C)[C@H](O)C[C@@H]13
Result: 2580 nM

---

test system: NCI-H226 lung; experiment: NCI tumour cell line growth inhibition, 48 h
experimentalReadout: TGI (µM)
All answers are understood in µM, so give the number only.

CCOC(=O)C(C(=O)c1ccccc1-c1ccccc1C(=O)O)=P(c1ccccc1)(c1ccccc1)c1ccccc1    73.7
FC(F)(F)c1ccc2nc(-c3nc(-c4ccccc4)n4ccccc34)[nH]c2c1    32.9
O=C1Cc2c(-c3ccc(Cl)cc3)cc(-c3ccccc3)nc2-c2ccccc2N1    44.9
O=C(CC(O)(c1ccccc1)c1ccc(Cl)cc1)NC(=O)c1ccccc1O (configuration not stated)    29.8
N#Cc1c(N)nn(C(=O)c2ccc(NC(=O)c3ccccn3)cc2)c1-c1ccc(Cl)cc1    31
Cc1cc(S(=O)(=O)Nc2nc3ccsc3c(=O)n2N)c(S)cc1Cl    88
Cc1cc(O)c(C(C)C)cc1NC(=O)Nc1cccc2ccccc12    46.7
O=c1ccc2nc(-c3ccccc3)nn(-c3ccccc3)c-2c1    4.21

Request: # lookup: TGI of O=c1c2ccccc2oc2c1ccc1ncccc12
Result: 38.9

Request: Next molecule up: CC(C)(C)C#C[P+](c1ccccc1)(c1ccccc1)c1ccccc1
Result: 0.984

Request: Another molecule to look at: CC1=NN(c2cccc(Cl)c2)C2(C1)C(Cl)C(=O)N2c1nc2ccccc2s1 (configuration not stated)
Result: 43.4

Request: Same thing, different molecule: O=C(CCCCCCc1nc2ccc(Br)cc2[nH]1)NO
Result: 7.37

Request: Thanks! And COc1ccc(C(=O)/C=C/c2ccc(Cl)cc2)cc1S(N)(=O)=O ?
Result: 14.8

Request: Quick one: COc1cc(C2c3cc4c(cc3C(O)C3CCC(=O)N23)OCO4)cc(OC)c1OC (configuration not stated)
Result: 79.3

Request: And the next one, Oc1ccc2c(c1)-c1c(c3cc(O)ccc3n1CCN1CCOCC1)CC2 ?
Result: 41.4

Request: Can you handle COc1ccc(NC(=O)c2ccc(NC3=C(Cl)C(=O)N(Cc4ccccc4)C3=O)cc2)cc1 next?
Result: 35.9

Request: Likewise for COc1ccc2oc(S(=O)(=O)N3CC(CCl)c4ccc([N+](=O)[O-])cc43)cc2c1 (configuration not stated) ?
Result: 1.43

Request: Moving on to C/C(O)=C/c1nc2ccccc2nc1/C=C(/C)O
Result: 61.3

Request: Same for COc1cc2c(cc1OCCCC(=O)Nc1cc(C(=O)Nc3cc(C(=O)Nc4cc(C(=O)NCCCN(C)C)n(C)c4)n(C)c3)n(C)c1)N=C[C@@H]1CCCN1C2=O
Result: 37.9

Request: Can you handle C#Cc1cccc(NC(=O)Nc2ccccc2NC(=O)CCl)c1 next?
Result: 34.1

---

Overview of reported TGI across a group of molecules:
test system: MDA-MB-231 breast; assay: NCI tumour cell line growth inhibition, 48 h
Give just the numeric value; µM need not be written.

Examples with answers:
O=c1ccc2nc(-c3ccccc3)nn(-c3ccccc3)c-2c1    3.84
COc1ccc(CN2CCc3c(Cl)nc(N)nc3C2=O)c(OC)c1    30.3
COC(c1ccsc1)C(C#N)(C#N)N=Cc1ccsc1 (stereo not drawn)    21.3
C/C(O)=C/c1nc2ccccc2nc1/C=C(/C)O    53
COc1ccc2oc(S(=O)(=O)N3CC(CCl)c4ccc([N+](=O)[O-])cc43)cc2c1 (stereo not drawn)    1.23

Moving on to another molecule below.
Request: Need TGI, item CCCCC/C=C1/CC(CO)(COC(=O)CC(C(C)C)C(C)C)OC1=O (stereo not drawn)
Result: 32.5

---

Reported GI50 values for the following molecules.
tested on: SW-620 colon; assay: NCI tumour cell line growth inhibition, 48 h

Request: # input molecule: COc1cc[c]([Hg][Cl])cc1 ; wanted: its GI50
Result: 1.54 µM

Request: Would you kindly repeat that for CCc1nc(N)nc(N)c1-c1ccc(Cl)cc1 ?
Result: 3.99 µM

Request: Cool, now CCOC(=O)c1cc2c(n1Cc1cccc(OC)c1)-c1oncc1CC2
Result: 0.433 µM

Request: Consider next the molecule O=P(O)(O)OC1C(OP(=O)(O)O)C(OP(=O)(O)O)C(OP(=O)(O)O)C(OP(=O)(O)O)C1OP(=O)(O)O (stereo not given) in the same way.
Result: > 2000 µM

Request: And CC(C)Oc1cc(OCC(=O)O)cc(C(=O)N(CCC(N)=O)C(=O)Nc2ccc(C(=O)O)cc2OC(C)C)c1 ?
Result: > 100 µM

---

Listed next: entries and their corresponding TGI.
tested on: PC-3 prostate; assay: NCI tumour cell line growth inhibition, 48 h

Guide cases for TGI, answers given:
Cc1c2c(n3c(nc4ccccc43)c1C#N)SCC2    > 10 µM
CCCC1NC(C#N)(C#N)C(CCC)NC1(C#N)C#N (stereo unspecified)    > 88.7 µM

Moving on to the next compound.
Request: Fill in the blank: the reported TGI of COc1ccc(NC(=O)c2ccc(NC3=C(Cl)C(=O)N(Cc4ccccc4)C3=O)cc2)cc1 is ____.
Result: 19.9 µM

---

tested on: HS 578T breast; experiment: NCI tumour cell line growth inhibition, 48 h
Decision: TGI compared against 40 µM; not below it gives yes (1), below it gives no (0).

CC(=O)N1N=C(c2c(O)ccc3ccccc23)CC1C(=O)c1ccco1 (centres undefined)    yes (1)

Request: Kindly determine if TGI recorded for COc1ccc(NC(=O)c2ccc(NC3=C(Cl)C(=O)N(Cc4ccccc4)C3=O)cc2)cc1 is above or exactly 40 µM.
Result: yes (1)

Request: Follow-up item: CCNc1nc(N)c(C(=O)c2ccc(Cl)cc2)s1
Result: no (0)

Request: Now the same for COc1cc(C2c3cc4c(cc3C(O)C3CCC(=O)N23)OCO4)cc(OC)c1OC (centres undefined)
Result: yes (1)

Request: Another compound to look at: CC1(C)C2CCC1(CS(=O)(=O)Nc1ccccc1)C(=O)C2 (centres undefined)
Result: yes (1)

Request: Similarly, COc1ccc(/C=C2/SC(=Nc3c(C)nn(-c4ccccc4)c3N)NC2=O)cc1 ?
Result: no (0)

Request: Same again, this time with CCN1CCN(C(=O)[C@]23CC[C@@H](C)[C@H](C)[C@@H]2C2=CC[C@@H]4[C@@]5(C)C/C(=C/c6cccnc6)C(=O)C(C)(C)[C@@H]5CC[C@@]4(C)[C@]2(C)CC3)CC1
Result: no (0)

Request: Queued: CC/C(Cl)=N\OC(=O)Nc1ccc(OC)cc1
Result: yes (1)

Request: What do we get for CC1=NN(c2cccc(Cl)c2)C2(C1)C(Cl)C(=O)N2c1nc2ccccc2s1 (centres undefined) ?
Result: yes (1)

---

Measured TGI values are reported for all entries that follow.
tested on: SNB-75 CNS; assay: NCI tumour cell line growth inhibition, 48 h

Some solved entries appear below for comparison.
CCCC(Sc1nc(N)nc2nc[nH]c12)C(=O)O (configuration not stated)    > 100 µM
O=P(O)(O)OC1C(OP(=O)(O)O)C(OP(=O)(O)O)C(OP(=O)(O)O)C(OP(=O)(O)O)C1OP(=O)(O)O (configuration not stated)    > 2000 µM
O=[N+]([O-])C(/C(Cl)=C(/Cl)N1CCOCC1)=C1\NCCO1    > 100 µM

Please find the next compound below.
Request: Quick check: TGI of Cc1cc2c(cc1-c1cc3c(cc1C)C(C(C)C)=C(O)C(=O)/C3=C\Nc1nc(-c3ccccc3)cs1)/C(=C/Nc1nc(-c3ccccc3)cs1)C(=O)C(O)=C2C(C)C ?
Result: > 100 µM

---

tested on: BT-549 breast; assay: NCI tumour cell line growth inhibition, 48 h; in the data active = GI50 below about 0.43 µM; inactive = the rest
Use one of these outcomes when replying: Yes for active, No for inactive

Check out these entries, answers already filled in.
CCCCc1ccc2nc(NC(=O)OC)[nH]c2c1    Yes
O=C(Nc1ccc(Cl)c(Cl)c1)Nc1ccc(Cl)c([N+](=O)[O-])c1    No
Cc1ncc(C(=O)Nc2ccc(CN3CCN(C)CC3)c(C(F)(F)F)c2)cc1C#Cc1c(N)ncc2ccc(C#N)cc12    No
N#Cc1c(N)nn(C(=O)c2ccc(NC(=O)c3ccccn3)cc2)c1-c1ccc(Cl)cc1    No

Request: Please state the recorded outcome for this molecule: O=P(O)(O)OC1C(OP(=O)(O)O)C(OP(=O)(O)O)C(OP(=O)(O)O)C(OP(=O)(O)O)C1OP(=O)(O)O (centres undefined)
Result: No

Request: # iterate: CCOC(=O)c1cnc2ccc(Cl)cc2c1NCCCN(C)C
Result: No
